- assay remarks: Cytotoxicity against human 16-HBE cells by CCK8 assay
- condition parameters: 16hbe14o-
pIC50: −log10 of the molar value.
endpoint: pIC50

              substance_smiles  endpoint  recorded_measurement
0  O=C(CCCCCCC(=O)Nc1ccccc1)NO     pIC50                  4.30

Provenance of the data: ChEMBL document CHEMBL6182879
